Taken from the supplement of paper PMC10307832.

Tested on: NCI-H2405
Experiment: relative viability (nuclei count vs DMSO), 5 days (fraction); higher = more cells survive
Details: first compound 0.3162 µM
EXPERIMENTAL READOUT: relative viability
Give your answer as a number; write no unit.

Task: Find relative viability (NCI-H2405) for the entry NC(=O)Nc1cc(-c2cccc(F)c2)sc1C(=O)N[C@H]1CCCNC1 [AZD7762] + CC1(C)CCC(c2ccc(Cl)cc2)=C(CN2CCN(c3ccc(C(=O)NS(=O)(=O)c4ccc(N[C@H](CCN5CCOCC5)CSc5ccccc5)c(S(=O)(=O)C(F)(F)F)c4)cc3)CC2)C1 [Navitoclax] (partner 0.5 µM)
Result: 0.675

Task: Now the same for NC(=O)Nc1cc(-c2cccc(F)c2)sc1C(=O)N[C@H]1CCCNC1 [AZD7762] + CC(=O)Nc1cccc(-n2c(=O)n(C3CC3)c(=O)c3c(Nc4ccc(I)cc4F)n(C)c(=O)c(C)c32)c1 [Trametinib] (partner 0.02 µM)
Result: 0.631

* * *

System: UMC-11
Assay: relative viability (nuclei count vs DMSO), 5 days (fraction); higher = more cells survive
Conditions: first compound 2.53 µM
Give relative viability for every item shown.
Give your answer as a number; write no unit.

Task: Need relative viability of Oc1nc(-c2ccc(C(F)(F)F)cc2)nc2c1CSCC2 [XAV939] + CS(=O)(=O)N1CCN(Cc2cc3nc(-c4cccc5[nH]ncc45)nc(N4CCOCC4)c3s2)CC1 [Pictilisib] (partner 1 µM) , thanks.
Result: 0.712

Task: Now the same for C=C1C(=O)O[C@@H](CCCCCCCC)[C@@H]1C(=O)O [C-75] + O=C(c1cc(Cc2n[nH]c(=O)c3ccccc23)ccc1F)N1CCN(C(=O)C2CC2)CC1 [Olaparib] (partner 8 µM)
Result: 0.27

Task: Now the same for C=C1C(=O)O[C@@H](CCCCCCCC)[C@@H]1C(=O)O [C-75] + Cc1cc(Nc2cc(N3CCN(C)CC3)nc(Sc3ccc(NC(=O)C4CC4)cc3)n2)n[nH]1 [Tozasertib] (partner 0.1 µM)
Result: 0.161

Task: Now the same for Oc1nc(-c2ccc(C(F)(F)F)cc2)nc2c1CSCC2 [XAV939] + CC1(C)CCC(c2ccc(Cl)cc2)=C(CN2CCN(c3ccc(C(=O)NS(=O)(=O)c4ccc(N[C@H](CCN5CCOCC5)CSc5ccccc5)c(S(=O)(=O)C(F)(F)F)c4)cc3)CC2)C1 [Navitoclax] (partner 0.5 µM)
Result: 0.271

* * *

Tested on: ChaGo-K-1
Assay: relative viability (nuclei count vs DMSO), 5 days (fraction); higher = more cells survive
Settings: first compound 1.265 µM
EXPERIMENTAL READOUT: relative viability

Task: Find relative viability (ChaGo-K-1) for the entry O=C(O)c1ccc(-c2c[nH]c3ncc(-c4ccccc4)cc23)cc1C1CCCC1 + COc1cc2c(Oc3ccc(NC(=O)C4(C(=O)Nc5ccc(F)cc5)CC4)cc3F)ccnc2cc1OCCCN1CCOCC1 [Foretinib] (partner 0.25 µM)
Result: 0.863

Task: Now the same for O=C(O)c1ccc(-c2c[nH]c3ncc(-c4ccccc4)cc23)cc1C1CCCC1 + CS(=O)(=O)N1CCN(Cc2cc3nc(-c4cccc5[nH]ncc45)nc(N4CCOCC4)c3s2)CC1 [Pictilisib] (partner 1 µM)
Result: 0.923

Task: Now the same for O=C(O)c1ccc(-c2c[nH]c3ncc(-c4ccccc4)cc23)cc1C1CCCC1 + O=C(CCCCCCC(=O)Nc1ccccc1)NO [Vorinostat] (partner 1 µM)
Result: 0.686

Task: Now the same for O=C(O)c1ccc(-c2c[nH]c3ncc(-c4ccccc4)cc23)cc1C1CCCC1 + CC1(C)CCC(c2ccc(Cl)cc2)=C(CN2CCN(c3ccc(C(=O)NS(=O)(=O)c4ccc(N[C@H](CCN5CCOCC5)CSc5ccccc5)c(S(=O)(=O)C(F)(F)F)c4)cc3)CC2)C1 [Navitoclax] (partner 0.5 µM)
Result: 1.32

* * *

System: NCI-H1734
Test: relative viability (nuclei count vs DMSO), 5 days (fraction); higher = more cells survive
Conditions: first compound 8 µM
Field: label. Allowed values: True (relative viability < 0.4) or False (relative viability >= 0.4).

Task: is_below(relative viability, 0.4) for C=C1C(=O)O[C@@H](CCCCCCCC)[C@@H]1C(=O)O [C-75] + Nc1ncn([C@H]2C[C@H](O)[C@@H](CO)O2)c(=O)n1 [Decitabine] (partner 2 µM) ?
Result: False

Task: Now the same for C=C1C(=O)O[C@@H](CCCCCCCC)[C@@H]1C(=O)O [C-75] + COc1cccc2cc(-c3nc([C@H]4CC[C@H](C(=O)O)CC4)n4ncnc(N)c34)[nH]c12 [OSI-027] (partner 0.5 µM)
Result: False

Task: Now the same for C=C1C(=O)O[C@@H](CCCCCCCC)[C@@H]1C(=O)O [C-75] + CC(=O)c1c(C)c2cnc(Nc3ccc(N4CCNCC4)cn3)nc2n(C2CCCC2)c1=O [Palbociclib] (partner 0.5 µM)
Result: True

Task: Now the same for C=C1C(=O)O[C@@H](CCCCCCCC)[C@@H]1C(=O)O [C-75] + C[C@@H](Oc1cc(-c2cnn(C3CCNCC3)c2)cnc1N)c1c(Cl)ccc(F)c1Cl [Crizotinib] (partner 1 µM)
Result: False

Task: Now the same for C=C1C(=O)O[C@@H](CCCCCCCC)[C@@H]1C(=O)O [C-75] + CS(=O)(=O)N1CCN(Cc2cc3nc(-c4cccc5[nH]ncc45)nc(N4CCOCC4)c3s2)CC1 [Pictilisib] (partner 1 µM)
Result: True

* * *

Tested on: HCC-827
Experiment: relative viability (nuclei count vs DMSO), 5 days (fraction); higher = more cells survive
Conditions: first compound 0.1265 µM
Give relative viability for every item shown.
Give your answer as a number; write no unit.

Task: Need relative viability of O=C(O)c1ccc(-c2c[nH]c3ncc(-c4ccccc4)cc23)cc1C1CCCC1 + Nc1ncn([C@H]2C[C@H](O)[C@@H](CO)O2)c(=O)n1 [Decitabine] (partner 2 µM) , thanks.
Result: 0.316

Task: Now the same for O=C(O)c1ccc(-c2c[nH]c3ncc(-c4ccccc4)cc23)cc1C1CCCC1 + Cc1nc(NC(=O)N2CCC[C@H]2C(N)=O)sc1-c1ccnc(C(C)(C)C(F)(F)F)c1 [Alpelisib] (partner 2 µM)
Result: 0.988

Task: Now the same for O=C(O)c1ccc(-c2c[nH]c3ncc(-c4ccccc4)cc23)cc1C1CCCC1 + Cc1cc(Nc2cc(N3CCN(C)CC3)nc(Sc3ccc(NC(=O)C4CC4)cc3)n2)n[nH]1 [Tozasertib] (partner 0.1 µM)
Result: 0.475

Task: Now the same for O=C(O)c1ccc(-c2c[nH]c3ncc(-c4ccccc4)cc23)cc1C1CCCC1 + O=C(CCCCCCC(=O)Nc1ccccc1)NO [Vorinostat] (partner 1 µM)
Result: 0.913

Task: Now the same for O=C(O)c1ccc(-c2c[nH]c3ncc(-c4ccccc4)cc23)cc1C1CCCC1 + Nc1nc2[nH]cc(CCc3ccc(C(=O)N[C@@H](CCC(=O)O)C(=O)O)cc3)c2c(=O)[nH]1 [Pemetrexed] (partner 0.2 µM)
Result: 0.28

Task: Now the same for O=C(O)c1ccc(-c2c[nH]c3ncc(-c4ccccc4)cc23)cc1C1CCCC1 + NC(=O)Nc1cc(-c2cccc(F)c2)sc1C(=O)N[C@H]1CCCNC1 [AZD7762] (partner 0.2 µM)
Result: 0.191

Task: Now the same for O=C(O)c1ccc(-c2c[nH]c3ncc(-c4ccccc4)cc23)cc1C1CCCC1 + C[C@]1(O)C[C@@H](c2nc(-c3ccc4ccc(-c5ccccc5)nc4c3)c3c(N)nccn32)C1 [Linsitinib] (partner 1 µM)
Result: 0.976

Task: Now the same for O=C(O)c1ccc(-c2c[nH]c3ncc(-c4ccccc4)cc23)cc1C1CCCC1 + Cc1nc(Nc2ncc(C(=O)Nc3c(C)cccc3Cl)s2)cc(N2CCN(CCO)CC2)n1 [Dasatinib] (partner 0.075 µM)
Result: 0.294

Task: Now the same for O=C(O)c1ccc(-c2c[nH]c3ncc(-c4ccccc4)cc23)cc1C1CCCC1 + O=C(c1cc(Cc2n[nH]c(=O)c3ccccc23)ccc1F)N1CCN(C(=O)C2CC2)CC1 [Olaparib] (partner 8 µM)
Result: 0.714

* * *

Test system: NCI-H1395
Assay: relative viability (nuclei count vs DMSO), 5 days (fraction); higher = more cells survive
Details: first compound 0.1581 µM
EXPERIMENTAL READOUT: relative viability
Give your answer as a number; write no unit.

Task: Need relative viability of CC1(C)CCC(c2ccc(Cl)cc2)=C(CN2CCN(c3ccc(C(=O)NS(=O)(=O)c4ccc(N[C@H](CCN5CCOCC5)CSc5ccccc5)c(S(=O)(=O)C(F)(F)F)c4)cc3)CC2)C1 [Navitoclax] + NC(=O)Nc1cc(-c2cccc(F)c2)sc1C(=O)N[C@H]1CCCNC1 [AZD7762] (partner 0.2 µM) , thanks.
Result: 0.385

Task: Now the same for CC1(C)CCC(c2ccc(Cl)cc2)=C(CN2CCN(c3ccc(C(=O)NS(=O)(=O)c4ccc(N[C@H](CCN5CCOCC5)CSc5ccccc5)c(S(=O)(=O)C(F)(F)F)c4)cc3)CC2)C1 [Navitoclax] + C[C@]1(O)C[C@@H](c2nc(-c3ccc4ccc(-c5ccccc5)nc4c3)c3c(N)nccn32)C1 [Linsitinib] (partner 1 µM)
Result: 1.13
